Target: UniProtKB Q9H244
Sequence (Q9H244 whole entry): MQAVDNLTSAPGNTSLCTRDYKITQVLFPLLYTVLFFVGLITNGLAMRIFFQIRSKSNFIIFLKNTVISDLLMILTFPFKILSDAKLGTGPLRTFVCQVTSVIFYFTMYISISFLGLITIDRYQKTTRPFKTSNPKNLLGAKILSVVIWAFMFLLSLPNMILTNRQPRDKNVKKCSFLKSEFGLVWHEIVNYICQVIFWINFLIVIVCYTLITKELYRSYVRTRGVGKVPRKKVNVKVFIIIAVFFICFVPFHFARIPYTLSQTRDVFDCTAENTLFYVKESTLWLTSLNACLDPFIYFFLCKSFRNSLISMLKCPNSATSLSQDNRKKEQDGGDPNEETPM
Experiment: Inhibition study in human P2Y12 receptor transfected CHO cells (cAMP, LANCE Ultra cAMP Kit)
Type: cell-based
readout.type: IC50

// query IC50 value for entry CCCSc1nc(N[C@@H]2C[C@H]2c2ccc(F)c(F)c2)c2nnn([C@@H]3C[C@H](OCCO)[C@@H](O)[C@H]3O)c2n1 [Ticagrelor, reference compound]
< 50 nM
